All values here come from patent US8541585B2.

Overview of recorded inhibition at 0.01 µM for various molecules
- system_name: human D2L receptor (Homo sapiens, UniProt P14416)
- Sequence (P14416 whole entry): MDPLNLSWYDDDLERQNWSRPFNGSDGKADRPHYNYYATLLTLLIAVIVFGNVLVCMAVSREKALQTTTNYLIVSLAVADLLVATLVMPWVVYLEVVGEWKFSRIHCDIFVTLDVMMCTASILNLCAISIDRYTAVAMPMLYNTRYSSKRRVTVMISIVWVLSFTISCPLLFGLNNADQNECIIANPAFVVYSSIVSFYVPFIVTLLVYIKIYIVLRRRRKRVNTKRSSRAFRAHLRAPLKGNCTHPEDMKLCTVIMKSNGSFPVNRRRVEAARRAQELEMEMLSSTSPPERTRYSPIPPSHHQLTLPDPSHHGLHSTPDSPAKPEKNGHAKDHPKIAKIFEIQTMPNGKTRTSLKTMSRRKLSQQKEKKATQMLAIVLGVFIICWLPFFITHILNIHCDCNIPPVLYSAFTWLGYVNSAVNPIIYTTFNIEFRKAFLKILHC
- method_description: Dopamine D2L receptor binding assay ([3H]-spiperone)
- setup_conditions: 10 nM test drug; [3H]-spiperone 0.5 nM; human D2L receptor-expressing CHO cell membrane; read-out: BINDING INHIBITION RATE (%) D2L 10 nM
measured_attribute: inhibition at 0.01 µM (%)

# chem_smiles, measured_attribute, unit_annotation, value_observed
measured = [
    ("Cc1ccc2cc(C(=O)N3CCCC[C@H]3CCN3CCN(c4n[nH]c5ccccc45)CC3)[nH]c2c1", "inhibition at 0.01 µM", "%", 62),
    ("O=C(c1ccc(F)cc1)C1CCN(CC[C@@H]2CCCN2C(=O)c2cc3ccccc3n2-c2ccncc2)CC1", "inhibition at 0.01 µM", "%", 83),
    ("N#CCCc1ccc2c(Cl)c(C(=O)N3CCC[C@H]3CCN3CCC(C(=O)c4ccc(F)cc4)CC3)[nH]c2c1", "inhibition at 0.01 µM", "%", 83),
    ("COc1c(F)ccc2[nH]c(C(=O)N3CCC[C@H]3CCN3CCC(C(=O)c4ccc(F)cc4)CC3)cc12", "inhibition at 0.01 µM", "%", 86),
    ("O=C(/C=C/c1ccc2c(c1)OCO2)N1CCC[C@H](CN2CCC(c3noc4cc(F)ccc34)CC2)C1", "inhibition at 0.01 µM", "%", 84),
    ("COc1ccc2cc(C(=O)N3CCOC[C@H]3CCN3CCC(c4noc5cc(F)ccc45)CC3)[nH]c2c1", "inhibition at 0.01 µM", "%", 84),
    ("O=C(c1cc2cc(O)ccc2[nH]1)N1CCOC[C@H]1CCN1CCC(c2c[nH]c3ccccc23)CC1", "inhibition at 0.01 µM", "%", 85),
]

---

- system_name: human α1D receptor (Homo sapiens, UniProt P25100)
- Construct: expressed in transfected cells; host or cells: CHO cells (membrane preparation)
- Sequence (P25100 whole entry): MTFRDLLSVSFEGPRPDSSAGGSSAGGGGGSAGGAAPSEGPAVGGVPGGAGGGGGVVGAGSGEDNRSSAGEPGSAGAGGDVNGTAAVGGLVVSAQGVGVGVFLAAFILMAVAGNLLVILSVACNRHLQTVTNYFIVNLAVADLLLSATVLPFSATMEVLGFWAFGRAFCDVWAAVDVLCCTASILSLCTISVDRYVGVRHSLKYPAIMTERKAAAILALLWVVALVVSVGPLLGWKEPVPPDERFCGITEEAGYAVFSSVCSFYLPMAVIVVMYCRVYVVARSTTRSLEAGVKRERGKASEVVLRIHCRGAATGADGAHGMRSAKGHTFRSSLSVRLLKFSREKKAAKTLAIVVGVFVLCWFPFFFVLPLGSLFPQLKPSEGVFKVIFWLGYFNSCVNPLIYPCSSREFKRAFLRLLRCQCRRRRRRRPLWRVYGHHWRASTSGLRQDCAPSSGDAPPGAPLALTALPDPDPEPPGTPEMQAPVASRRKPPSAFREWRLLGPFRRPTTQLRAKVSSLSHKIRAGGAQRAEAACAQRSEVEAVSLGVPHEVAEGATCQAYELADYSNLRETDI
- method_description: Adrenaline α1D receptor binding assay ([3H]-prazosin)
- setup_conditions: 100 nM test drug; [3H]-prazosin 0.6 nM; human α1D receptor-expressing CHO cell membrane; read-out: BINDING INHIBITION RATE (%) α1D 100 nM
inhibition at 0.1 µM values, listed per item

# molecule, inhibition at 0.1 µM (%)
measured = [
    ("O=C(c1ccc(F)cc1)C1CCN(CC[C@@H]2CCCN2C(=O)c2cc(-c3ccccc3)n[nH]2)CC1 [Example 51]", 51),
    ("O=C(/C=C/c1ccc2c(c1)OCO2)N1CCC[C@H](CN2CCC(c3noc4cc(F)ccc34)CC2)C1 [Example 17]", 92),
    ("O=C(/C=C/c1ccc2c(c1)OCO2)N1CC[C@H]1CCN1CCC(c2noc3cc(F)ccc23)CC1 [Example 18]", 102),
    ("Cc1ccc2cc(C(=O)N3CCC[C@H]3CCN3CCN(c4nccc5ccccc45)CC3)[nH]c2c1 [Example 11]", 5),
]

---

- system_name: UniProt P14416
- method_description: Dopamine D2L receptor binding assay ([3H]-spiperone)
- setup_conditions: 10 nM test drug; [3H]-spiperone 0.5 nM; human D2L receptor-expressing CHO cell membrane; read-out: BINDING INHIBITION RATE (%) D2L 10 nM
Some compounds, each annotated with its measured inhibition at 0.01 µM.

# compound, inhibition at 0.01 µM
measured = [
    ("CCNC(=O)O[C@@H]1C[C@@H](CCN2CCC(c3c[nH]c4ccccc34)CC2)N(C(=O)c2cc3cc(OC)ccc3[nH]2)C1 [Example 36]", "48%"),
    ("O=C(c1ccc(F)cc1)C1CCN(CC[C@@H]2CCCN2C(=O)c2cc3ccc(OC(F)(F)F)cc3[nH]2)CC1 [Example 160]", "90%"),
    ("N#Cc1ccc2[nH]c(C(=O)N3CCC[C@H]3CCN3CCC(C(=O)c4ccc(F)cc4)CC3)cc2c1 [Example 56]", "84%"),
    ("O=C(c1ccc(F)cc1)C1CCN(CC[C@@H]2CCCN2C(=O)c2cc3ccc(F)cc3[nH]2)CC1 [Example 159]", "93%"),
    ("Cc1ccc2cc(C(=O)N3CCC[C@H]3CCN3CCN(c4nsc5cc(F)ccc45)CC3)[nH]c2c1 [Example 13]", "72%"),
    ("COc1ccc2[nH]c(C(=O)N3CCC[C@H]3CCN3CCC(c4cn(-c5ccc(F)cc5)c5ccc(Cl)cc45)CC3)cc2c1 [Example 60]", "76%"),
    ("C[C@H]1CC[C@@H](CCN2CCC(C(=O)c3ccc(F)cc3)CC2)N1C(=O)c1cc2ccc(C(F)(F)F)cc2[nH]1 [Example 167]", "75%"),
    ("Cc1ccc2cc(C(=O)N3CCC[C@H]3CCN3CCN(c4n[nH]c5cc(F)ccc45)CC3)[nH]c2c1 [Example 24]", "88%"),
    ("Cc1ccc2cc(C(=O)N3C[C@H](O)CC[C@H]3CCN3CCC(c4c[nH]c5ccccc45)CC3)[nH]c2c1 [Example 39]", "77%"),
    ("COc1ccc2cc(C(=O)N3C[C@H](O)C[C@H]3CCN3CCC(c4c[nH]c5ccccc45)CC3)[nH]c2c1 [Example 35]", "37%"),
    ("O=C(c1nc2cc(Cl)ccc2[nH]1)N1CCCC[C@H]1CCN1CCC(c2c[nH]c3ccccc23)CC1 [Example 58]", "57%"),
    ("O=C(c1cc2ccc(F)cc2[nH]1)N1CCC[C@H](CN2CCN(c3n[nH]c4ccccc34)CC2)C1 [Example 22]", "26%"),
    ("Cc1ccc2cc(C(=O)N3CCC[C@H]3CCN3CCN(c4n[nH]c5ccc(F)cc45)CC3)[nH]c2c1 [Example 25]", "28%"),
    ("O=C(c1ccc(F)cc1)C1CCN(CC[C@@H]2CCCN2C(=O)c2cc3c(F)cccc3[nH]2)CC1 [Example 62]", "81%"),
]
